# subject_of_test: WNK3 (Homo sapiens (Human), UniProt Q9BYP7)
# Sequence (Q9BYP7 whole entry): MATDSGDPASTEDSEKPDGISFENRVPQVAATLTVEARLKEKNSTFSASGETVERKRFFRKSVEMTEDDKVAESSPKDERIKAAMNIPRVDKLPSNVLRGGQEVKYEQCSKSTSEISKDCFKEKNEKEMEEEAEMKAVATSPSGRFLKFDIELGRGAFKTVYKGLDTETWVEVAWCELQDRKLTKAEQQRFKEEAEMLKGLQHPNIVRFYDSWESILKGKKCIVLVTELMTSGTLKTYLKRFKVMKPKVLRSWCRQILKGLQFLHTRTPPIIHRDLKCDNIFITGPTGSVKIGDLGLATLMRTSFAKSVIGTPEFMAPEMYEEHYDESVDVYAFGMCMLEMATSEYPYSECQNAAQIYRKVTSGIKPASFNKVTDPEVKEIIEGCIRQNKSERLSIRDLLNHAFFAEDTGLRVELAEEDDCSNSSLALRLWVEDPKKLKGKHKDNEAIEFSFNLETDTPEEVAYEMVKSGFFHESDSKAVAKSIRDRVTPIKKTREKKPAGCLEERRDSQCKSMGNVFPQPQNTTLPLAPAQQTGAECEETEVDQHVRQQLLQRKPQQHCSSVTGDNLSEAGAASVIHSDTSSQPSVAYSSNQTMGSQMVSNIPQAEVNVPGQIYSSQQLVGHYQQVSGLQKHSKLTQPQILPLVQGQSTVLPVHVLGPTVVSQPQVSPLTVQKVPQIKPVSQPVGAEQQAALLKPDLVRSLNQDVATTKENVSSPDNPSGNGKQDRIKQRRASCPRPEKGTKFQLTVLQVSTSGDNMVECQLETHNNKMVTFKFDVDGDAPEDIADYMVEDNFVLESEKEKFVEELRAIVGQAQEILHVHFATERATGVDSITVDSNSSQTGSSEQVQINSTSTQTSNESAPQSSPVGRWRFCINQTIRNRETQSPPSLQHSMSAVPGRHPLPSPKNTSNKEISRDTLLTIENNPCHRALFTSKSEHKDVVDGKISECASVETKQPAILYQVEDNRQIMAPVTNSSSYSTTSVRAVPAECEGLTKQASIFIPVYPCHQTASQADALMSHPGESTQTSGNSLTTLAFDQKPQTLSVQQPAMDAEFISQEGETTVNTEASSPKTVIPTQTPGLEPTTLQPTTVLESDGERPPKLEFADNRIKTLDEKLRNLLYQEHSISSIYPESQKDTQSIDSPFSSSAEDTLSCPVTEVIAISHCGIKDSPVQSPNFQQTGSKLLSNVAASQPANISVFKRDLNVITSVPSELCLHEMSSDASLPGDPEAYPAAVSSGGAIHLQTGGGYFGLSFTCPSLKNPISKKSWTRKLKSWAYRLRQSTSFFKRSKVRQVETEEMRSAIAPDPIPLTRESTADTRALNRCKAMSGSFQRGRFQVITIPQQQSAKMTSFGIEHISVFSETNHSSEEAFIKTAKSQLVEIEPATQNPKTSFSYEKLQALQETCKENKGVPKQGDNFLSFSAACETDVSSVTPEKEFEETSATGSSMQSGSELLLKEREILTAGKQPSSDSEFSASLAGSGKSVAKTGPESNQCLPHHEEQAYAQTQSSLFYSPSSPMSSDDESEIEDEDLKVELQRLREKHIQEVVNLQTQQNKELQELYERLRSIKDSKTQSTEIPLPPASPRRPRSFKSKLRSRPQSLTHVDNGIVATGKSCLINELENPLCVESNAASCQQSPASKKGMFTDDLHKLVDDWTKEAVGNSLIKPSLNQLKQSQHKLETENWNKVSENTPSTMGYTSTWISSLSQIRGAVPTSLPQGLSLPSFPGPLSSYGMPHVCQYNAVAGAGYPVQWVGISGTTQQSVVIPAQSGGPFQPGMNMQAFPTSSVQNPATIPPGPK
# test: KinaseProfiler off-target kinase profiling
# Assay type: biochemical
# run_parameters: 10 μM, ATP near Km
outcome_measure: Avg. POC (POC)

                                   compound  outcome_measure  unit_abbrev  test_result
0  Cc1c(-c2cnn(C)c2)nn(-c2ccccc2)c1NC(=O)N[C@H]1CCCc2ccccc21 [Example 2]         Avg. POC          POC        109.5
1  COCc1ccc2c(c1)C(NC(=O)Nc1c(C)c(-c3cnn(C)c3)nn1-c1ccccc1)COC2 (stereo not shown) [Example 32]         Avg. POC          POC        103.5
2  Cc1c(-c2cnn(C)c2)nn(-c2ccccc2)c1NC(=O)NC1CCOc2cc(F)ccc21 (stereo not shown) [Example 12]         Avg. POC          POC        112.5
3  Cc1c(-c2ccc(=O)n(C)c2)nn(-c2ccccc2)c1NC(=O)NC1CN(CC(F)(F)F)Cc2ccccc21 (stereo not shown) [Example 26]         Avg. POC          POC        103.5
